Value source: patent US4076814A

Each record here notes measured Recovery of mycoplasma joint.
# System: MRL-4 strain of mycoplasma pulmonis
# experiment-notes: Curative effect in mice infected with MRL-4 strain of mycoplasma pulmonis by oral administration in feed
# Type: in vivo
# measurement-context: 0.01% in feed, 10 days, after one month
reported-endpoint: Recovery of mycoplasma joint

| compound | study-system | reported-endpoint | reported-value |
| --- | --- | --- | --- |
| CCN(CC)C(=S)SCCC(=O)c1ccccc1 [compound 24, 2-Benzoylethyl diethyldithiocarbamate] | MRL-4 strain of mycoplasma pulmonis | Recovery of mycoplasma joint | 3/10 |
| CC(=O)CCSC(=S)N1CCCCC1 [compound 88, 2-Acetylethyl 1-piperidinecarbodithioate] | MRL-4 strain of mycoplasma pulmonis | Recovery of mycoplasma joint | 1/10 |
| O=C1CCCCC1CSC(=S)N1CCOCC1 (stereo not shown) | MRL-4 strain of mycoplasma pulmonis | Recovery of mycoplasma joint | 4/10 |
| CCN(CC)C(=S)SCCC(C)=O [compound 79, 2-Acetylethyl diethyldithiocarbamate] | MRL-4 strain of mycoplasma pulmonis | Recovery of mycoplasma joint | 0/10 |
